Examples of molecules with documented TGI follow.
test system: HL-60(TB) leukemia; assay: NCI tumour cell line growth inhibition, 48 h

[
  {
    "MOLECULE": "O=C(/C=C/c1ccc(O)c(O)c1)Oc1ccccc1",
    "COMPARISON_SIGN": "=",
    "TGI / µM": 20.1
  },
  {
    "MOLECULE": "O=C(O)c1cc2c3c(c1)[C@H]1C=CC[C@H]1CN3CC1CC=CC21 (stereo not given in full)",
    "COMPARISON_SIGN": ">",
    "TGI / µM": 100
  },
  {
    "MOLECULE": "S=C(S)NCCCn1ccnc1",
    "COMPARISON_SIGN": ">",
    "TGI / µM": 100
  },
  {
    "MOLECULE": "O=c1c2ccccc2c(C=NCCNCCO)c2oc3ccccc3n12",
    "COMPARISON_SIGN": "=",
    "TGI / µM": 20.7
  },
  {
    "MOLECULE": "CNC(=O)OC(C)CN1c2ccccc2Sc2ccccc21 (stereo not given)",
    "COMPARISON_SIGN": ">",
    "TGI / µM": 100
  },
  {
    "MOLECULE": "CC1=CC(=O)c2cccc(O)c2C1=O",
    "COMPARISON_SIGN": "=",
    "TGI / µM": 9.13
  },
  {
    "MOLECULE": "CC1=C(CC/C(C)=C/CCC2(C)CCC([C@H](C)C(=O)O)OO2)C(C)(C)CCC1 (stereo not given in full) (tested in a mixture with another compound)",
    "COMPARISON_SIGN": ">",
    "TGI / µM": 100
  },
  {
    "MOLECULE": "CCOP(=O)(C/C(=N/NC(C)(C)C)C(=O)Nc1nc2ccc(C)cc2s1)OCC",
    "COMPARISON_SIGN": ">",
    "TGI / µM": 100
  },
  {
    "MOLECULE": "O=S(=O)(O)c1cc(O)c2c(O)c(N=Nc3ccc(/C=C/c4ccc(N=Nc5c(S(=O)(=O)O)cc6cc(S(=O)(=O)O)cc(O)c6c5O)cc4S(=O)(=O)O)c(S(=O)(=O)O)c3)c(S(=O)(=O)O)cc2c1",
    "COMPARISON_SIGN": ">",
    "TGI / µM": 100
  },
  {
    "MOLECULE": "COc1ccc(-c2ccc(=O)oc2-c2cc(OC)c(OC)c(OC)c2)cc1O",
    "COMPARISON_SIGN": "=",
    "TGI / µM": 0.0705
  }
]

* * *

The following compounds are listed with their measured TGI values.
system: NCI-H226 lung; assay: NCI tumour cell line growth inhibition, 48 h

[
  {
    "COMPOUND": "CCN(CC)CCNC(=O)c1ccccc1Nc1c(Cl)cccc1Cl",
    "COMPARISON_SIGN": "=",
    "TGI (µM)": 38.5
  },
  {
    "COMPOUND": "CCCCCCCCCCSS(=O)(=O)c1ccc(C)cc1",
    "COMPARISON_SIGN": "=",
    "TGI (µM)": 37.3
  },
  {
    "COMPOUND": "COc1ccc(S(=O)(=O)N2CCCCC2)cc1NC(=O)c1[nH]c(C)c2c1CCCCC2=O",
    "COMPARISON_SIGN": "=",
    "TGI (µM)": 34.7
  },
  {
    "COMPOUND": "CCCCNC(=O)C1=C(C)NC(C)=C(C(=O)NCCCC)C1",
    "COMPARISON_SIGN": ">",
    "TGI (µM)": 100
  },
  {
    "COMPOUND": "COc1cc([C@@H]2c3cc4c(cc3[C@@H](NC(=O)c3ccc(C(C)=O)cc3)C3COC(=O)[C@@H]32)OCO4)cc(OC)c1O (stereo not given in full)",
    "COMPARISON_SIGN": "=",
    "TGI (µM)": 1.93
  },
  {
    "COMPOUND": "CC(C)NCCCNC1=C(Cl)C(=O)c2ccccc2C1=O",
    "COMPARISON_SIGN": "=",
    "TGI (µM)": 27.6
  },
  {
    "COMPOUND": "CC(C)[C@H](COC(C)(C)C)N=CN1CSc2ccccc21",
    "COMPARISON_SIGN": ">",
    "TGI (µM)": 100
  },
  {
    "COMPOUND": "COC(=O)/C=C\\C1C(C(=O)OC)C2(C(=O)OC)CCC1(C(=O)OC)N2 (stereo not given)",
    "COMPARISON_SIGN": "=",
    "TGI (µM)": 36.6
  },
  {
    "COMPOUND": "COC(=O)C(=O)C(C(=O)C(=O)Nc1ccc([N+](=O)[O-])cc1C#N)c1nc2ccc([N+](=O)[O-])cc2[nH]c1=O (stereo not given)",
    "COMPARISON_SIGN": ">",
    "TGI (µM)": 100
  },
  {
    "COMPOUND": "Nc1nc(SCCC/C=C/B(O)O)nc2c1ncn2C1OC(CO)C(O)C1O (stereo not given)",
    "COMPARISON_SIGN": ">",
    "TGI (µM)": 243
  }
]
